Where these numbers come from: patent US20080187588A1

- EXPERIMENTAL_DETAILS: pH-dependent solubility of vardenafil hydrochloride trihydrate
- Format: physicochemical
- APPLIED_CONDITIONS: aqueous buffer; in 0.15 M phosphate buffer of pH 4
Where a name gives a salt, the structure may show the parent alone.
OBSERVABLE: solubility

Name the recorded solubility of the compound listed here: CCCc1nc(C)c2c(=O)[nH]c(-c3cc(S(=O)(=O)N4CCN(CC)CC4)ccc3OCC)nn12 [vardenafil hydrochloride trihydrate] 870 µg/mL

====

- EXPERIMENTAL_DETAILS: pH-dependent solubility of vardenafil hydrochloride trihydrate
- Assay type: physicochemical
- APPLIED_CONDITIONS: aqueous buffer; in 0.15 M phosphate buffer of pH 7
Where a name gives a salt, the structure may show the parent alone.
OBSERVABLE: solubility (µg/mL)
State the answer as a number, implicitly in µg/mL.

Please report the measured solubility for CCCc1nc(C)c2c(=O)[nH]c(-c3cc(S(=O)(=O)N4CCN(CC)CC4)ccc3OCC)nn12 [vardenafil hydrochloride trihydrate] 30
